# Tested on: BEN
# method: relative viability (nuclei count vs DMSO), 5 days (fraction); higher = more cells survive
# measurement_context: first compound 1.265 µM
measured_parameter: relative viability

compound | measured_parameter | test_result
COc1cc(N2CCC(C(N)=O)CC2)ccc1Nc1nc(N)c(Cl)c(Nc2ccccc2S(=O)(=O)C(C)C)n1 [HG-5-88-01] + O=C(CCCCCCC(=O)Nc1ccccc1)NO [Vorinostat] (partner 1 µM) | relative viability | 0.552
Clc1ccc(Nc2nnc(Cc3ccncc3)c3ccccc23)cc1 [Vatalanib] + O=C(CCCCCCC(=O)Nc1ccccc1)NO [Vorinostat] (partner 1 µM) | relative viability | 0.561
COc1cc(N2CCC(C(N)=O)CC2)ccc1Nc1nc(N)c(Cl)c(Nc2ccccc2S(=O)(=O)C(C)C)n1 [HG-5-88-01] + CC1(C)CCC(c2ccc(Cl)cc2)=C(CN2CCN(c3ccc(C(=O)NS(=O)(=O)c4ccc(N[C@H](CCN5CCOCC5)CSc5ccccc5)c(S(=O)(=O)C(F)(F)F)c4)cc3)CC2)C1 [Navitoclax] (partner 0.5 µM) | relative viability | 0.0568
Clc1ccc(Nc2nnc(Cc3ccncc3)c3ccccc23)cc1 [Vatalanib] + CC(=O)Nc1cccc(-n2c(=O)n(C3CC3)c(=O)c3c(Nc4ccc(I)cc4F)n(C)c(=O)c(C)c32)c1 [Trametinib] (partner 0.02 µM) | relative viability | 1.12
COc1cc(N2CCC(C(N)=O)CC2)ccc1Nc1nc(N)c(Cl)c(Nc2ccccc2S(=O)(=O)C(C)C)n1 [HG-5-88-01] + NC(=O)Nc1cc(-c2cccc(F)c2)sc1C(=O)N[C@H]1CCCNC1 [AZD7762] (partner 0.2 µM) | relative viability | 0.615
COc1cc(N2CCC(C(N)=O)CC2)ccc1Nc1nc(N)c(Cl)c(Nc2ccccc2S(=O)(=O)C(C)C)n1 [HG-5-88-01] + CS(=O)(=O)N1CCN(Cc2cc3nc(-c4cccc5[nH]ncc45)nc(N4CCOCC4)c3s2)CC1 [Pictilisib] (partner 1 µM) | relative viability | 0.468
COc1cc(N2CCC(C(N)=O)CC2)ccc1Nc1nc(N)c(Cl)c(Nc2ccccc2S(=O)(=O)C(C)C)n1 [HG-5-88-01] + COc1cc2c(Oc3ccc(NC(=O)C4(C(=O)Nc5ccc(F)cc5)CC4)cc3F)ccnc2cc1OCCCN1CCOCC1 [Foretinib] (partner 0.25 µM) | relative viability | 0.62
COc1cc(N2CCC(C(N)=O)CC2)ccc1Nc1nc(N)c(Cl)c(Nc2ccccc2S(=O)(=O)C(C)C)n1 [HG-5-88-01] + O=C(c1cc(Cc2n[nH]c(=O)c3ccccc23)ccc1F)N1CCN(C(=O)C2CC2)CC1 [Olaparib] (partner 8 µM) | relative viability | 0.683
